# test-target: DRB1*1302 (Homo sapiens, UniProt P01903+P01911, A100E/A169T/K41T/L162R/M171V/P40S/Q125H/Q178H/Q39Y/Q99D/R42S/S66N/T262R/V115G/W38E/Y61H)
# Sequence (P01903 26-254 limits assumed, other chains not shown): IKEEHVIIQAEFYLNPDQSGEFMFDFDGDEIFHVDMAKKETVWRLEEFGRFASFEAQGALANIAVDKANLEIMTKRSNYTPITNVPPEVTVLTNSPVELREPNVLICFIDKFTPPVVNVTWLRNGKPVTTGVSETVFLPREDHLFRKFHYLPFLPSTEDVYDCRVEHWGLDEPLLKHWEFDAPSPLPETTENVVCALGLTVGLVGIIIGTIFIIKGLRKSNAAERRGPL
# protocol-notes: biochemical
# Format: binding
# setup-conditions: read-out: IC50 nM to purified HLA DRB1*1302
observable: IC50 (nM)
One number for each entry, in nM.

Ask: Quick check: IC50 of CC[C@H](C)[C@H](NC(=O)[C@@H](NC(=O)[C@H](CCC(=O)O)NC(=O)[C@H](CCSC)NC(=O)[C@@H](N)[C@@H](C)O)C(C)C)C(=O)N[C@@H](CCC(N)=O)C(=O)N[C@@H](CCC(N)=O)C(=O)N[C@H](C(=O)N[C@@H](CCCNC(=N)N)C(=O)N[C@H](C(=O)N[C@@H](CC(=O)O)C(=O)N[C@@H](CCCCN)C(=O)N[C@@H](CC(C)C)C(=O)N[C@H](C(=O)N[C@@H](CCC(N)=O)C(=O)O)[C@@H](C)O)C(C)C)[C@@H](C)O ?
Reply: 180

* * *

# test-target: DRB1*0401 (Homo sapiens, UniProt P01903+P01911, A100K/A169T/F76Y/I96L/K127E/L162R/M171V/N62H/P40V/Q125Y/R42H/S133A/S149N/S66Y/V115G/V209L/W38E)
# Construct: made in house; host or cells: EBV-transformed homozygous human B cell lines, transfected fibroblasts or single-allele 721.221 transfectants
# protocol-notes: biochemical
# Format: binding
# setup-conditions: read-out: IC50 nM to purified HLA DRB1*0401
Friendly reminder: IC50 below 700 nM is Satisfied, at or above is Not satisfied.

Ask: Hi there! Is IC50 for CC[C@H](C)[C@H](NC(=O)[C@H](CO)NC(=O)[C@H](CCC(N)=O)NC(=O)[C@H](CCC(=O)O)NC(=O)[C@H](CC(=O)O)NC(=O)[C@H](CCCNC(=N)N)NC(=O)CNC(=O)[C@H](CO)NC(=O)[C@@H](NC(=O)[C@@H](NC(=O)[C@H](CC(C)C)NC(=O)[C@H](CCC(N)=O)NC(=O)[C@@H](NC(=O)[C@@H](N)CC(C)C)[C@@H](C)CC)[C@@H](C)CC)C(C)C)C(=O)N[C@@H](C)C(=O)O below 700 nM, do you know?
Reply: Satisfied

Ask: Identify whether the molecule CC(C)C[C@H](NC(=O)[C@H](C)NC(=O)CNC(=O)[C@H](CCC(N)=O)NC(=O)[C@@H](NC(=O)[C@H](CC(C)C)NC(=O)[C@H](Cc1ccccc1)NC(=O)[C@H](Cc1ccccc1)NC(=O)[C@@H](NC(=O)[C@@H](N)CCCNC(=N)N)[C@@H](C)O)[C@@H](C)O)C(=O)N[C@@H](CC(C)C)C(=O)N[C@@H](CC(N)=O)C(=O)N[C@@H](CC(=O)O)C(=O)N[C@@H](CCCCN)C(=O)N[C@@H](Cc1c[nH]cn1)C(=O)N[C@@H](CO)C(=O)O records IC50 below 700 nM.
Reply: Satisfied

New cases:
Ask: Identify whether the molecule CC[C@H](C)[C@H](NC(=O)[C@H](CCC(N)=O)NC(=O)[C@H](Cc1ccc(O)cc1)NC(=O)[C@H](CCC(=O)O)NC(=O)[C@H](CC(C)C)NC(=O)[C@@H](N)CC(N)=O)C(=O)NCC(=O)N[C@@H](Cc1ccc(O)cc1)C(=O)N[C@H](C(=O)N[C@@H](CS)C(=O)N[C@@H](CO)C(=O)NCC(=O)N[C@H](C(=O)N[C@@H](Cc1ccccc1)C(=O)NCC(=O)O)C(C)C)[C@@H](C)CC records IC50 below 700 nM.
Reply: Not satisfied

* * *

# test-target: DRB1*0101 (Homo sapiens, UniProt P01903+P01911, A100R/D57E/F55L/F60I/F76Y/I96L/L162R/M171V/P40L/Q125E/R42F/V115G/Y59C)
# Construct: made in house; host or cells: EBV-transformed homozygous human B cell lines, transfected fibroblasts or single-allele 721.221 transfectants
# protocol-notes: biochemical
# Type: binding
# setup-conditions: IC50 nM to purified HLA DRB1*0101
observable: IC50 (nM)
One number for each entry, in nM.

// worked examples, IC50 included
Ask: Need IC50, item CC[C@H](C)[C@H](NC(=O)[C@@H](N)CC(=O)O)C(=O)N[C@@H](CC(C)C)C(=O)N[C@@H](CCSC)C(=O)N[C@@H](CCCNC(=N)N)C(=O)N[C@@H](CCSC)C(=O)N[C@@H](CO)C(=O)N[C@@H](CCCCN)C(=O)N[C@@H](CCSC)C(=O)N[C@@H](CCC(N)=O)C(=O)N[C@@H](CC(C)C)C(=O)NCC(=O)N[C@@H](CO)C(=O)N[C@@H](CO)C(=O)N[C@@H](CO)C(=O)O
Reply: 2140

Ask: # get_value(readout='IC50', item= CC[C@H](C)[C@H](N)C(=O)N[C@@H](Cc1ccc(O)cc1)C(=O)N[C@@H](CCC(N)=O)C(=O)N[C@H](C(=O)N[C@@H](CC(C)C)C(=O)N[C@@H](CO)C(=O)N[C@H](C(=O)N[C@@H](Cc1ccc(O)cc1)C(=O)N[C@@H](CO)C(=O)N[C@H](C(=O)N[C@H](C(=O)N[C@@H](C)C(=O)N[C@@H](CO)C(=O)N[C@@H](CO)C(=O)N[C@@H](CC(C)C)C(=O)N[C@@H](C)C(=O)O)C(C)C)[C@@H](C)O)[C@@H](C)CC)[C@@H](C)CC )
Reply: 55

***
Ask: What does the record list as IC50 for CC[C@H](C)[C@H](NC(=O)[C@H](Cc1ccc(O)cc1)NC(=O)[C@@H](NC(=O)[C@@H](NC(=O)[C@@H]1CCCN1)[C@@H](C)O)[C@@H](C)O)C(=O)N[C@@H](CO)C(=O)N[C@H](C(=O)NCC(=O)N[C@H](C(=O)N[C@@H](CO)C(=O)N[C@H](C(=O)N[C@@H](CC(C)C)C(=O)N[C@@H](CC(N)=O)C(=O)N[C@@H](CCC(N)=O)C(=O)N[C@@H](CCCNC(=N)N)C(=O)N[C@@H](CC(C)C)C(=O)O)[C@@H](C)O)[C@@H](C)O)C(C)C ?
Reply: 190

* * *

Could you please report measured IC50 for the items listed next?
# test-target: DRB1*1501 (Homo sapiens, UniProt P01903+P01911)
# Construct: made in house; host or cells: EBV-transformed homozygous human B cell lines, transfected fibroblasts or single-allele 721.221 transfectants
# protocol-notes: biochemical
# Type: binding
# setup-conditions: read-out: IC50 nM to purified HLA DRB1*1501
Give bare numbers, in nM.

Ask: # lookup: IC50 of CC[C@H](C)[C@H](NC(=O)CNC(=O)[C@@H](NC(=O)[C@@H]1CCCN1C(=O)[C@H](CCCNC(=N)N)NC(=O)[C@@H](N)CCCNC(=N)N)C(C)C)C(=O)N[C@@H](CO)C(=O)N[C@@H](CO)C(=O)N[C@@H](CCSC)C(=O)N[C@H](C(=O)N[C@@H](CCC(=O)O)C(=O)N[C@@H](C)C(=O)N[C@@H](CCSC)C(=O)N[C@H](C(=O)N[C@@H](CO)C(=O)O)C(C)C)C(C)C
Reply: 240

API: the following record is the query input.
Ask: Find the recorded IC50 belonging to CC(C)C[C@H](NC(=O)CNC(=O)[C@@H](NC(=O)[C@H](C)NC(=O)[C@H](CC(C)C)NC(=O)[C@@H](NC(=O)[C@H](CC(C)C)NC(=O)[C@H](CCCNC(=N)N)NC(=O)[C@H](CC(N)=O)NC(=O)[C@H](CO)NC(=O)[C@H](CCCCN)NC(=O)[C@@H](NC(=O)[C@H](Cc1ccc(O)cc1)NC(=O)[C@H](CCCCN)NC(=O)[C@@H]1CCCN1C(=O)[C@@H](N)CS)C(C)C)C(C)C)[C@@H](C)O)C(=O)O and report it.
Reply: 230

* * *

# test-target: DRB1*0401 (Homo sapiens, UniProt P01903+P01911, A100K/A169T/F76Y/I96L/K127E/L162R/M171V/N62H/P40V/Q125Y/R42H/S133A/S149N/S66Y/V115G/V209L/W38E)
# Construct: made in house; host or cells: EBV-transformed homozygous human B cell lines, transfected fibroblasts or single-allele 721.221 transfectants
# protocol-notes: biochemical
# Assay type: binding
# setup-conditions: read-out: IC50 nM to purified HLA DRB1*0401
Where no end group is shown, it is not given here.
observable: IC50 (nM)
Numbers only, in nM.

Ask: Name the reported IC50 value associated with the sequence GSYFFGDNAEEYDN [Flu.NP.488]
Reply: 1950

Ask: Which IC50 reading was recorded for the sequence ISGVKLESIGIYQILSI [Flu.HA.519] ?
Reply: 3110

Ask: Sample PVHFRNQVKIRRRVD [Flu.PB2.135] — what was its IC50?
Reply: 1300

Provide IC50 for all items below, preserving their order.
1. MVAYMLERELVRKTR [Flu.PB2.205]
2. MEWLKTRPILSPLTK [Flu.M1.46]

Reply:
1: 166; 2: 528
